Biological target: T1, human IL-2Rβ (human, UniProt P14784 27-240, limits assumed)
T1 construct: Recombinant protein, coated (ELISA) or immobilised on CM5 (SPR); also called hu IL-2R; interleukin 2 receptor β-chain
T1 sequence: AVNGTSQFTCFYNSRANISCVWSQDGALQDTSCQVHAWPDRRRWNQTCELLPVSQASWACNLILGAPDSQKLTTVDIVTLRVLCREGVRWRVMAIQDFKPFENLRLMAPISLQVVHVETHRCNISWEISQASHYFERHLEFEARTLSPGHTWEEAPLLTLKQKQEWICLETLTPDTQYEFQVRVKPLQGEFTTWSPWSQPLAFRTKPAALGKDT
Assay: SPR (Biacore), P.E. off-rate ranking
measured_parameter: koff (s⁻¹)
One number for each entry, in s⁻¹.

Solved cases below.
{"binder": "FJ1427_P035MP03G07 (VHH, soluble VHH in periplasmic extract; also called clone nr) VHH: QVQLVESGGGLVQAGGSLRLSCAASGRTFSSDAKGWFRQAPGKEREFVAAITWAGRGTDYADSVKGRFTITRDNAKNMVYLQMSNLKPEDTAVYYCALNPEGVIGPYFRNSNRYNYWGQGTQVTVSS", "scale_unit": "s⁻¹", "koff": 0.00286}
{"binder": "FJ1427 P035MP03F11 (VHH, soluble VHH in periplasmic extract; also called clone nr) VHH: QVQLVESGGGLAQAGGSLRLSCAASGRTFSQDAKAWFRQAPGKEREFVAAITWSGRDTDYADSVKGRFTIARDNAKNTVYLQMDSLKPEDTAVYYCAVYPQGTIGPYFRSSNHYDYWGQGTQVTVSS", "scale_unit": "s⁻¹", "koff": 0.000277}
{"binder": "FJ1427 P035MP03D07 (VHH, soluble VHH in periplasmic extract; also called clone nr) VHH: EVQLVESGGGLVQAGGSLRLSCAASGDVFVRYTMAWFRQAPGKEREFVASVTDSGRTTDYGDSVKGRFTVSRDNAKNTVYLQMNNLKPEDTAVYYCAANTDYFQIRSLDANTWGQGTQVTVSS", "scale_unit": "s⁻¹", "koff": 0.00263}
{"binder": "FJ1427_P035MP02H11 (VHH, soluble VHH in periplasmic extract; also called clone nr) VHH: EVQLVESGGGLVQAGGSLRLSCAASGRTFSTTEMGWFRQAPGKEREFVAAITWTGRGTMYAESVEGRFTISRENAKNMVYLQMNSLKPEDTAIYYCAAARRGRAAVRSEGGYDFWGQGTQVAVSS", "scale_unit": "s⁻¹", "koff": 0.000773}

Memo: FJ1427 P035MP03C04 (VHH, soluble VHH in periplasmic extract; also called clone nr) VHH: EVQLVESGGGLVQAGASLELSCAASGGTFSSYAMGWFRQAPGKEREFVAATTRGGGRTMYAVSTEGRFSCSRDNAKNTVNLLIKNLKPEDTAVYYCAARTSYYDGTYYPASSDFDIWGQGTQVTVSS , reported koff: 0.000307
